system: THRa homodimer (NR concentration 90 nM); test: PBM binding z-score (relative to random genomic background probes); higher = stronger binding; sequences stand for … in GC…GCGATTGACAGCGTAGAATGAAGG
Reported PBM binding z-score by item:

>  <residue.codes>
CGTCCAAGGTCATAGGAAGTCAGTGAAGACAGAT

>  <PBM binding z-score>
2.31

$$$$
>  <residue.codes>
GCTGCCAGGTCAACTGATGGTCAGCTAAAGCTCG

>  <PBM binding z-score>
2.18

$$$$
>  <residue.codes>
CAAAGTAGGTCAAAGGTCAAAGTCGAGCCAACCA

>  <PBM binding z-score>
1.22

$$$$
>  <residue.codes>
TTACCAAGGTTAGCTGAGGTCGTTGATCCAACTC

>  <PBM binding z-score>
2.13

$$$$
>  <residue.codes>
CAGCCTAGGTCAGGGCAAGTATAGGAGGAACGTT

>  <PBM binding z-score>
0.481

$$$$
>  <residue.codes>
TGTAAAAGTTCAAAGGTAACGTAAGTATCCACAC

>  <PBM binding z-score>
0.192

$$$$
>  <residue.codes>
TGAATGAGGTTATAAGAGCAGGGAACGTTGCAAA

>  <PBM binding z-score>
0.0456

$$$$
>  <residue.codes>
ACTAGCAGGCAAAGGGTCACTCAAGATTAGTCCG

>  <PBM binding z-score>
0.198

$$$$
>  <residue.codes>
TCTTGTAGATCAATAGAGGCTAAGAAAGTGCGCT

>  <PBM binding z-score>
-0.939

$$$$
>  <residue.codes>
CTAGACAGGTGAAAGGTAACTCAGTCTGGTACGC

>  <PBM binding z-score>
-0.398

$$$$
>  <residue.codes>
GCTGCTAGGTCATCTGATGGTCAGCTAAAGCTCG

>  <PBM binding z-score>
0.735

$$$$
>  <residue.codes>
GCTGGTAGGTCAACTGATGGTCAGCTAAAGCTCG

>  <PBM binding z-score>
0.0326

$$$$
